Kindly supply the reported IC50 values for the records listed here.
measured_target: IRAK4 (Homo sapiens (Human), UniProt Q9NWZ3)
Sequence (Q9NWZ3 whole entry, species assumed): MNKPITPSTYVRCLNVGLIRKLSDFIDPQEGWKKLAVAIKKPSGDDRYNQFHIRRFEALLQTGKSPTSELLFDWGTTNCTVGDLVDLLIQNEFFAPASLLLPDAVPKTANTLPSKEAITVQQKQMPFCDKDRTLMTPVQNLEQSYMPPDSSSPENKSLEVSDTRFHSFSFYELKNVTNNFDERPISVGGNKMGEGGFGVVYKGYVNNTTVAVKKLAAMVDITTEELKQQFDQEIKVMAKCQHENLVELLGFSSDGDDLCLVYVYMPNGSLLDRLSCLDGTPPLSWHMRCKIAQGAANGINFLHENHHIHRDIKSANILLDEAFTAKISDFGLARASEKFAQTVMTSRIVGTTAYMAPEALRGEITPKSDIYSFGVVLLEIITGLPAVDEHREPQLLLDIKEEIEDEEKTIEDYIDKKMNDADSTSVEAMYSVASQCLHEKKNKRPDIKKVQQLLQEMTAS
test_method_notes: IRAK4 Inhibition Assay
Assay type: biochemical
test_conditions: IRAK4 Inhibition Assay; ATP 500 μM; read-out: IRAK4 IC50
Method: The assays were performed in U-bottom 384-well plates. […] The reaction was initiated by the combination of IRAK4 with substrates and test compounds. The reaction mixture was incubated at room temperature for 60 min. and terminated by adding 45 μL of 35 mM EDTA to each sample. The reaction mixture was analyzed on the Caliper LABCHIP® 3000 (Caliper, Hopkinton, Mass.) by electrophoretic separation of the fluorescent substrate and phosphorylated product.
Answers are plain numbers, in nM.

Examples with their reported IC50 follow.
CC(C)NC(=O)c1cnc(-n2ncc3cc(C#N)cnc32)cc1Nc1cnn(CC(F)F)c1 [Example 388]: 11.2
CC(C)(O)[C@H](F)CNC(=O)c1cnc(-n2ncc3cc(C#N)cnc32)cc1NCC(F)(F)C(C)(C)O [Example 169]: 3.3

State recorded IC50 for all listed compounds.
1. CC[C@@H](C)Nc1cc(-n2ncc3cc(C#N)cnc32)ncc1C(=O)NCCC(C)(C)O [Example 193]
2. COC(=O)CCNC(=O)c1cnc(-n2ncc3cc(C#N)cnc32)cc1NC(C)C [Example 207]
3. CC(C)Nc1cc(-n2ncc3cc(C#N)cnc32)ncc1C(=O)NC1CCc2nc(N)sc2C1 (stereo not shown) [Example 165]

Response given:
1: 3.4; 2: 10.3; 3: 9.1

Go through the list and state IC50 for each entry.
1. CC(C)Nc1cc(-n2cnc3cc(C#N)c(N)nc32)ncc1C(=O)NC[C@@H](F)C(C)(C)O [Example 341]
2. CC(C)Nc1cc(-n2ncc3cc(C#N)c(N)nc32)ncc1C(=O)NC1C=CCC1 (stereo not shown) [Example 327]
3. CC(C)Nc1cc(-n2ncc3cc(C#N)cnc32)ncc1C(=O)NC1CCN(c2ncccn2)CC1 [Example 240]
4. CC(C)Nc1cc(-n2ncc3cc(C#N)cnc32)ncc1C(=O)N[C@H]1CC[C@H](NS(C)(=O)=O)CC1 [Example 166]

Response given:
1.9
11.1
15.7
4.6

Parameter requested: IC50. Apply to each item below.
1. CC(C)Nc1cc(-n2ncc3cc(C(F)F)cnc32)ncc1C(=O)NC[C@@H](F)C(C)(C)O [Example 231]
2. CC(C)(O)[C@H](F)CNC(=O)c1cnc(-n2ncc3cc(C#N)cnc32)cc1NC1CCC(F)CC1 (stereo partly shown) [Example 163]
3. CC(C)Nc1cc(-n2ccc3cncnc32)ncc1C(=O)NC[C@@H](F)C(C)(C)O [Example 39]
4. CCNC(=O)CCNC(=O)c1cnc(-n2ncc3cc(C#N)cnc32)cc1NC(C)C [Example 212]
5. CC(C)(O)[C@H](F)CNC(=O)c1cnc(-n2cnc3cc(Cl)cnc32)cc1Nc1cnn(CC(F)(F)F)c1 [Example 360]
6. CC(C)(O)[C@H](F)CNC(=O)c1cnc(-n2ccc3cc(C#N)cnc32)cc1NC12CCC(O)(CC1)C2 [Example 16]
7. CC(C)Nc1cc(-n2ncc3cc(C#N)cnc32)ncc1C(=O)NCCC1(O)CCNC1 (stereo not shown) [Example 255]

Response given:
[14.2, 3, 1.1, 12.4, 1.5, 1.2, 7.5]

----------
measured_target: IRAK4 (Homo sapiens (Human), UniProt Q9NWZ3)
test_method_notes: IRAK4 Inhibition Assay
Assay type: biochemical
test_conditions: IRAK4 Inhibition Assay; ATP 500 μM; read-out: IRAK4 IC50
result_type: IC50 (nM)
Numbers only, in nM.

# count of solved cases: 4
CC(C)(O)[C@H](F)CNC(=O)c1cnc(-n2ccc3cncnc32)cc1NC1CC1: 1.9
CC(O)CCNC(=O)c1cnc(-n2ncc3cc(C#N)cnc32)cc1NC(C)C (stereo not shown) [Example 239]: 5.3
CC(C)Nc1cc(-n2ncc3cc(C#N)cnc32)ncc1C(=O)N[C@H]1CC[C@H](C(C)(C)O)C1: 6.3
CC(C)Nc1cc(-n2ncc3cc(C#N)c(N)nc32)ncc1C(=O)NC[C@@H](F)C(C)(C)O: 1.3

Give IC50 for each of the items listed below.
1. CC(C)(O)[C@H](F)CNC(=O)c1cnc(-n2ccc3cc(C#N)cnc32)cc1NCC1COC1
2. CC(C)Nc1cc(-n2ccc3cc(C#N)cnc32)ncc1C(=O)NCCCOC(C)(C)C
3. CC(C)Nc1cc(-n2ncc3cc(C#N)c(N)nc32)ncc1C(=O)NCCC(C)(C)F
4. CC1(CNc2cc(-n3ccc4cc(C#N)cnc43)ncc2C(=O)NC[C@@H](F)C(C)(C)O)COC1
5. CC(C)Nc1cc(-n2ccc3cnc(NCC(C)(C)O)nc32)ncc1C(=O)NC[C@@H](F)C(C)(C)O
6. COC1CCC(O)(CCNC(=O)c2cnc(-n3ncc4cc(C#N)cnc43)cc2NC(C)C)CC1 (stereo not shown)
7. CCCn1cc(Nc2cc(-n3cnc4cc(Cl)cnc43)ncc2C(=O)NC[C@@H](F)C(C)(C)O)cn1

Response given:
1. 3.7
2. 5.5
3. 2
4. 5.7
5. 1.9
6. 3.5
7. 2.5

----------
Tested on: TLR2 induced IL-6 in peripheral blood mononuclear cells (PBMCs)
test_method_notes: PBMC TLR2 Induced IL-6 Assay
Assay type: cell-based, human
test_conditions: Homo sapiens, PBMC, human PBMCs, lipoteichoic acid stimulated, IL-6 by ELISA; read-out: Cell EC50
Assignment: determine reported EC50 for the given compounds.
Answers are plain numbers, in nM.

Previously resolved entries follow.
CC(C)(O)[C@H](F)CNC(=O)c1cnc(-n2ccc3cc(C#N)cnc32)cc1NCC1CCOCC1: 433
COC(C)(C)[C@H](F)CNC(=O)c1cnc(-n2ccc3cc(C#N)cnc32)cc1NC(C)C: 57
CC(C)(O)[C@H](F)CNC(=O)c1cnc(-n2ccc3cc(C#N)cnc32)cc1NC1CCN(c2ccccc2)CC1: 257
C[C@H](Nc1cc(-n2ccc3cc(C#N)cnc32)ncc1C(=O)NC[C@@H](F)C(C)(C)O)C1CC1: 429
C[C@@H](Nc1cc(-n2ccc3cc(C#N)cnc32)ncc1C(=O)NC[C@@H](F)C(C)(C)O)C1CC1: 268
CC(C)(O)[C@H](F)CNC(=O)c1cnc(N2CCc3cc(C#N)cnc32)cc1NC1CC1: 305
CC(C)[C@@H](CO)Nc1cc(-n2ncc3cc(C#N)cnc32)ncc1C(=O)NC[C@@H](F)C(C)(C)O: 242
C[C@@H](CO)Nc1cc(-n2ccc3cc(F)cnc32)ncc1C(=O)N[C@H]1CC[C@H](C(C)(C)O)CC1: 80
Cn1nnnc1-c1ccc(Nc2cc(-n3ncc4cc(C#N)cnc43)ncc2C(=O)NC[C@@H](F)C(C)(C)O)cc1: 228
CC(C)(O)/C=C/Nc1cc(-n2ccc3cc(C#N)cnc32)ncc1C(=O)NC[C@@H](F)C(C)(C)O: 107

Please give EC50 for each item listed below.
1. CC(C)(O)[C@H](F)CNC(=O)c1cnc(-n2ncc3cc(C#N)cnc32)cc1N[C@H]1CC[C@H](C(C)(C)O)CC1
2. CC(C)(O)[C@H](F)CNC(=O)c1cnc(-n2ccc3cc(C#N)cnc32)cc1N[C@H]1CCOC1
3. CC(C)(O)[C@H](F)CNC(=O)c1cnc(-n2ccc3cc(C#N)cnc32)cc1NC1CN(S(C)(=O)=O)C1
4. CC(C)(O)[C@H](F)CNC(=O)c1cnc(-n2ccc3cc(C#N)cnc32)cc1NC1CC1c1c[nH]cn1 (mixture of isomers)
5. CC(C)(O)[C@H](F)CNC(=O)c1cnc(-n2ncc3cc(C#N)cnc32)cc1Nc1cccc(C#N)c1
6. CC(C)(O)[C@H](F)CNC(=O)c1cnc(-n2ccc3cc(C#N)cnc32)cc1Nc1ccc2nc[nH]c2c1
7. CC(C)(O)[C@H](F)CNC(=O)c1cnc(-n2ccc3cc(C#N)cnc32)cc1N[C@@H]1CCN(C(=O)CC(F)(F)F)C1

Response given:
1. 127
2. 109
3. 198
4. 88
5. 177
6. 73
7. 238

----------
measured_target: UniProtKB Q9NWZ3
test_method_notes: IRAK4 Inhibition Assay
Type: biochemical
test_conditions: ATP 500 μM; IRAK4 0.6 nM; read-out: IRAK4 IC50
Would you mind telling me the reported IC50 of each entry?
One number for each entry, in nM.

// worked examples, IC50 included
CC(C)(O)[C@H](F)CNC(=O)c1cnc(-n2ccc3cc(C#N)cnc32)cc1NC1CCN(c2ccccc2)CC1: 3.1
CC(C)(O)[C@H](F)CNC(=O)c1cnc(-n2ncc3cc(C#N)cnc32)cc1N[C@H]1CC[C@H](C(C)(C)O)CC1: 4
CC(C)Nc1cc(-n2ncc3cc(C#N)cnc32)ncc1C(=O)NCc1nn[nH]n1: 17.2

Turning now to a further record.
Challenge: Complete the entry with IC50 for CC[C@@H](CO)Nc1cc(-n2ncc3cc(C#N)cnc32)ncc1C(=O)NC[C@@H](F)C(C)(C)O
Response given: 4.4
